- assayedSystem: human Nox4 (Homo sapiens)
- Construct: expressed in transfected cells; host or cells: T-REx-293 (hNOX4 T-REx-293), tetracycline-induced; membrane fraction
- Sequence (Q9NPH5 1-578): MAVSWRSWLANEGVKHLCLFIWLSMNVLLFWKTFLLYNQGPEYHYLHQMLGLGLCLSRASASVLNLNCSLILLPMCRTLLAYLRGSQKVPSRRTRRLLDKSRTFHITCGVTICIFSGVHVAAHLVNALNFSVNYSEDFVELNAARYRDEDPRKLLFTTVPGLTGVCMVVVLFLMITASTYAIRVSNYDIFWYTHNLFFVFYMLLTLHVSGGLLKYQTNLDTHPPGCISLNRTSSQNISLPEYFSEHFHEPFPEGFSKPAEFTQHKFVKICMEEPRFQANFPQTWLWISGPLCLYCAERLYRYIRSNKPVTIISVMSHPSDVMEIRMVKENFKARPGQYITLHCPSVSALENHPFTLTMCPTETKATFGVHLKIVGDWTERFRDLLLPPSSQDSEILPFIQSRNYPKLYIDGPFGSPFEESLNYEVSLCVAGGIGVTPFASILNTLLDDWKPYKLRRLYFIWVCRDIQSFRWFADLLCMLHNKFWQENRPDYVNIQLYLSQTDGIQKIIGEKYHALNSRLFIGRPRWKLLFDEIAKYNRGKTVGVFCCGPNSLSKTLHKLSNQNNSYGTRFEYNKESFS
- Sequence (P13498 2-195 partner limits assumed): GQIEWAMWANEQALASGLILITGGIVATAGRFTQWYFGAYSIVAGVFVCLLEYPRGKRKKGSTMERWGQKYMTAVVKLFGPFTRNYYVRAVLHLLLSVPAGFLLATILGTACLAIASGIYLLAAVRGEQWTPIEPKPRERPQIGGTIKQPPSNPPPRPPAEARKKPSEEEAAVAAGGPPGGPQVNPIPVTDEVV
- measurementDescription: ROS production by membranes expressing human Nox4, cell-free Amplex Red assay
- Format: biochemical
- measurementSetup: cell-free membranes, Amplex Red; Cheng-Prusoff; average of at least three experiments in triplicate; read-out: Ki hNox4
Let's look at some molecules and their measured Ki.
observedProperty: Ki (nM)

1. COc1ccc(-c2c3c(=O)n(-c4ccccc4OC)[nH]c3cc(=O)n2Cc2ccn(C)n2)c(F)c1; 98
2. CNc1cccc(-c2c3c(=O)n(-c4ccccc4Cl)[nH]c3cc(=O)n2C)c1; 114
3. O=c1c2c(-c3ccc(Cl)cc3)n(Cc3cccnc3)c(=O)cc2[nH]n1-c1ccccc1Cl; 100
4. COc1ccc(-c2c3c(=O)n(-c4ccccc4OC)[nH]c3cc(=O)n2Cc2cccnc2)cc1; 115
5. COc1ccc(-c2c3c(=O)n(-c4ccccc4OC)[nH]c3cc(=O)n2Cc2ccn(C)n2)cc1; 98
